Where these numbers come from: PubChem BioAssay (NCATS)

Test system: DIV17
Test: qHTS profiling for inhibitors of Plasmodium falciparum proliferation (AID 504749); note: nearly all actives have a fitted effect of over 60% in size
Details: P. falciparum in erythrocytes, SYBR Green DNA, 72 h; series mostly up to 12.8 µM
Results filed as inconclusive are left out. Activity calls are given as the source filed them. Calls come from the whole dose curve; as a rule, active = well fitted inhibition curve with a large enough effect; inconclusive = small, poorly fitted or top-dose-only effect; inactive = flat fitted curve, though single readings scatter.
Write down the outcome that applies. Available outcomes: 1 (active), -1 (inactive)

{"compound": "CC1(C)O[C@@H]2C[C@H]3[C@H]4C[C@H](F)C5=CC(=O)CC[C@]5(C)[C@@H]4[C@H](O)C[C@]3(C)[C@]2(C(=O)CO)O1", "label_value": -1}
{"compound": "O=C1OC(CO)C(O)C(O)C1O (stereo not drawn)", "label_value": -1}
{"compound": "Nc1nc2ncc(CNc3ccc(C(=O)NC(CCC(=O)O)C(=O)O)cc3)nc2c(=O)[nH]1 (stereo not drawn)", "label_value": -1}
{"compound": "C[C@@]12CCC(=O)C=C1C=CC1C2CC[C@]2(C)C1CC[C@@]21CCC(=O)O1 (stereo partly drawn)", "label_value": -1}
{"compound": "COc1ccc2cc1Oc1ccc(cc1)CC1c3c(cc4c(c3Oc3cc5c(cc3OC)CCN(C)C5C2)OCO4)CCN1C (stereo not drawn)", "label_value": 1}
{"compound": "CC1(C)OC2CO[C@]3(COS(N)(=O)=O)OC(C)(C)OC3C2O1 (stereo partly drawn)", "label_value": -1}
{"compound": "O=C(Nc1ccccc1)OC[C@H](CN1CCCCC1)OC(=O)Nc1ccccc1", "label_value": -1}

Shift focus to the following entry.
*Q* Would you mind telling me which call this test gave COC1C=CO[C@@]2(C)Oc3c(C)c(O)c4c(O)c(c(C=NN5CCN(C)CC5)c(O)c4c3C2=O)NC(=O)/C(C)=C\C=CC(C)C(O)[C@@H](C)C(O)C(C)[C@H](OC(C)=O)C1C (stereo partly drawn) ?
*A* 1

* * *

System: CP238
Experiment: qHTS profiling for inhibitors of Plasmodium falciparum proliferation (AID 504749); note: nearly all actives have a fitted effect of over 60% in size
Conditions: P. falciparum in erythrocytes, SYBR Green DNA, 72 h; series mostly up to 12.8 µM
Inconclusive results are not listed. Activity calls are given as the source filed them. Calls follow the shape of the dose curve; as a rule, active = well fitted inhibition curve with a large enough effect; inconclusive = small, poorly fitted or top-dose-only effect; inactive = flat fitted curve, though single readings scatter.
Write down the outcome that applies. Available outcomes: yes (active), no (inactive)

As a guide, the following entries are already answered.
{"molecular_string": "CN[C@H]1[C@@H](O)[C@@H](NC)[C@@H]2O[C@@]3(O)C(=O)C[C@@H](C)O[C@H]3O[C@H]2[C@H]1O", "label_value": "no"}
{"molecular_string": "CC(C)(C)NC[C@@H](O)COc1ccccc1C1CCCC1", "label_value": "yes"}
{"molecular_string": "NS(=O)(=O)c1cc2c(cc1Cl)N[C@@H](CC1CCCC1)NS2(=O)=O", "label_value": "no"}

*Q* Would you mind telling me which call this test gave "Cc1ncc([N+](=O)[O-])n1C[C@H](O)CCl" ?
*A* no

* * *

Test system: ICS
Test: qHTS profiling for inhibitors of Plasmodium falciparum proliferation (AID 504749); note: nearly all actives have a fitted effect of over 60% in size
Details: P. falciparum in erythrocytes, SYBR Green DNA, 72 h; series mostly up to 12.8 µM
Records with an inconclusive call do not appear. Active and inactive are the calls of the source. Calls come from the whole dose curve; as a rule, active = well fitted inhibition curve with a large enough effect; inconclusive = small, poorly fitted or top-dose-only effect; inactive = flat fitted curve, though single readings scatter. Peptide text beside a SMILES is read from it.
Write down the outcome that applies. Available outcomes: active, inactive

As a guide, the following entries are already answered.
{"molecule": "CC(=O)[C@]1(O)CCC2C3C=C(Cl)C4=CC(=O)C5CC5[C@@]4(C)C3CC[C@]21C (stereo not given in full)", "label_value": "inactive"}
{"molecule": "NC(C(=O)O)[C@@H]1CC(Cl)=NO1 (stereo not given in full)", "label_value": "active"}
{"molecule": "C[N+]12CCC(CC1)[C@@H](OC(=O)C(O)(c1ccccc1)c1ccccc1)C2", "label_value": "inactive"}
{"molecule": "OCCN1CCN(CCC=C2c3ccccc3Sc3ccc(Cl)cc32)CC1", "label_value": "active"}
{"molecule": "COC(=O)C(Cc1ccccc1)NC(=O)C(N)CC(=O)O (stereo not drawn) (H-Asp-Phe-OMe; configuration not given here)", "label_value": "inactive"}

*Q* Would you mind telling me which call this test gave "O=C(Nc1ccccc1)OC[C@H](CN1CCCCC1)OC(=O)Nc1ccccc1" ?
*A* inactive

*Q* Would you mind telling me which call this test gave CO[C@]1(NC(=O)C2SC(=C(C(N)=O)C(=O)O)S2)C(=O)N2C(C(=O)O)=C(CSc3nnnn3C)CS[C@H]21 (stereo not given in full) ?
*A* inactive

*Q* Would you mind telling me which call this test gave "COC(=O)[C@@H]1[C@@H]2C[C@H]3c4[nH]c5cc(OC)ccc5c4CCN3C[C@@H]2C[C@H](OC(=O)/C=C\c2cc(OC)c(OC)c(OC)c2)[C@H]1OC" ?
*A* active

*Q* Would you mind telling me which call this test gave "Clc1ccc(CC[C@H](Cn2ccnc2)Sc2c(Cl)cccc2Cl)cc1" ?
*A* active

*Q* Would you mind telling me which call this test gave "C[C@H](N[C@@H](C)COc1ccccc1)[C@H](O)c1ccc(O)cc1" ?
*A* inactive

* * *

Test system: HB3
Experiment: qHTS profiling for inhibitors of Plasmodium falciparum proliferation (AID 504749); note: nearly all actives have a fitted effect of over 60% in size
Details: P. falciparum in erythrocytes, SYBR Green DNA, 72 h; series mostly up to 12.8 µM
Inconclusive results are not listed. Activity calls are given as the source filed them. The call rests on the fitted dose curve; in most records, active means well fitted inhibition curve with a large enough effect; inconclusive means small, poorly fitted or top-dose-only effect; inactive means flat fitted curve, though single readings scatter.
Write down the outcome that applies. Available outcomes: active, inactive

{"molecule": "C[C@H]1CS(=O)(=O)CCN1/N=C\\c1ccc([N+](=O)[O-])o1", "label_value": "inactive"}
{"molecule": "C[C@@H](CNC1CCCCC1)OC(=O)c1ccccc1", "label_value": "active"}
{"molecule": "Clc1ccc(CC[C@H](Cn2ccnc2)Sc2c(Cl)cccc2Cl)cc1", "label_value": "active"}
{"molecule": "CC[C@H](Cc1c(I)cc(I)c(N)c1I)C(=O)O", "label_value": "inactive"}
{"molecule": "CC[C@H](CO)NCCN[C@@H](CC)CO", "label_value": "inactive"}
{"molecule": "COc1ccc2c(c1)N(C[C@@H](C)CN(C)C)c1ccccc1S2", "label_value": "inactive"}

*Q* Would you mind telling me which call this test gave "COc1ccc(C[C@@](C)(N)C(=O)O)cc1OC" ?
*A* inactive

*Q* Would you mind telling me which call this test gave "CCN[C@@H]1CN(CCCOC)S(=O)(=O)c2sc(S(N)(=O)=O)cc21" ?
*A* inactive

*Q* Would you mind telling me which call this test gave "C=CCOc1ccccc1OC[C@H](O)CNC(C)C" ?
*A* inactive

*Q* Would you mind telling me which call this test gave "CC(C)Oc1ccc2c(=O)cc(-c3ccccc3)oc2c1" ?
*A* inactive

* * *

Test system: CP335
Experiment: qHTS profiling for inhibitors of Plasmodium falciparum proliferation (AID 504749); note: nearly all actives have a fitted effect of over 60% in size
Settings: P. falciparum in erythrocytes, SYBR Green DNA, 72 h; series mostly up to 12.8 µM
Records with an inconclusive call do not appear. Activity calls are given as the source filed them. Calls follow the shape of the dose curve; as a rule, active = well fitted inhibition curve with a large enough effect; inconclusive = small, poorly fitted or top-dose-only effect; inactive = flat fitted curve, though single readings scatter.
Write down the outcome that applies. Available outcomes: active, inactive

As a guide, the following entries are already answered.
{"compound": "Cc1cccc(C)c1NC(=O)[C@H](C)N", "label_value": "inactive"}
{"compound": "C[C@H]1CC[C@]2(OC1)O[C@@H]1C[C@@H]3[C@@H]4CC[C@H]5C[C@@H](O)CC[C@]5(C)[C@@H]4CC(=O)[C@@]3(C)[C@H]1[C@@H]2C", "label_value": "inactive"}
{"compound": "CCOC(=O)O[C@@H](C)OC(=O)[C@@H]1N2C(=O)[C@@H](NC(=O)[C@@H](N)c3ccccc3)[C@H]2SC1(C)C", "label_value": "inactive"}
{"compound": "O=C(NC[C@@H](O)CO)c1c(I)c(C(=O)NC[C@@H](O)CO)c(I)c(N(CCO)C(=O)CO)c1I", "label_value": "inactive"}
{"compound": "O=C1O[C@H](CN2CCOCC2)CN1/N=C\\c1ccc([N+](=O)[O-])o1", "label_value": "inactive"}

*Q* Would you mind telling me which call this test gave C/C1=C2N=C(/C=C3N=C(/C(C)=C4\[N-]C(C)(C5N=C1C(C)(CCC(=O)NCC(C)OP(=O)([O-])O[C@H]1C(O)C(n6cnc7cc(C)c(C)cc76)O[C@@H]1CO)C5CC(N)=O)C(C)(CC(N)=O)C4CCC(N)=O)C(C)(CC(N)=O)C\3CCC(N)=O)C(C)(C)C/2CCC(N)=O.[CH2-]C1OC(n2cnc3c(N)ncnc32)C(O)C1O.[Co] (some centres not stated) ?
*A* inactive

*Q* Would you mind telling me which call this test gave "C[C@H](C(=O)O)c1cccc(Oc2ccccc2)c1" ?
*A* inactive

*Q* Would you mind telling me which call this test gave "CC(=O)O[C@]1(C(C)=O)CC[C@@H]2[C@@H]3C=C(C)C4=CC(=O)CC[C@@]4(C)[C@H]3CC[C@]21C" ?
*A* inactive

*Q* Would you mind telling me which call this test gave "CC(=O)OCC(=O)[C@@]12OC(C)(C)O[C@@H]1C[C@H]1[C@H]3C[C@H](F)C4=CC(=O)C=C[C@@]4(C)[C@]3(F)[C@H](O)C[C@@]12C" ?
*A* inactive

*Q* Would you mind telling me which call this test gave "NCc1ccccc1CC(=O)N[C@@H]1C(=O)N2C(C(=O)O)=C(CSc3nnnn3CC(=O)O)CS[C@@H]12" ?
*A* inactive

*Q* Would you mind telling me which call this test gave C[C@@]12C=CC(=O)C=C1CCC1C3CC(O)[C@@](O)(C(=O)CO)[C@]3(C)CC(O)[C@]12F (some centres not stated) ?
*A* inactive

*Q* Would you mind telling me which call this test gave "CN[C@H]1[C@H](O)[C@@H](O[C@@H]2[C@H](O)[C@@H](O[C@H]3OC(CN)=CC[C@H]3N)[C@@H](N)C[C@H]2N)OC[C@@]1(C)O" ?
*A* inactive
